Tested on: RPMI-8226 leukemia
assay.protocol: NCI-60 one-dose screen, 48 h (100 = growth as untreated, 0 = no growth, -100 = all killed)
conditions.used: 10 µM
This is part of a sample that, as a whole, favours compounds with a hit. Of some 83,000 tested, about 20% had one in any assay.
outcome.measure: growth (%)
Lab book: enter the figure in %, no units written.

Which growth is listed for `Cc1n[nH]c(C)c1N=Nc1cccc2c1C(=O)c1ccccc1C2=O` ?
104

Same read-out for CC(C)=CCC/C(C)=C/CC/C(C)=C/CC/C=C(\C)CC/C=C(\C)CCC(=O)Nc1ccn(C2OC(CO)C(O)C2(F)F)c(=O)n1 (stereo unspecified) ?
32.1

Also check COc1cc2ncnc(NC3CCC(O)CC3)c2cc1OC (stereo unspecified)
104

Please do the same for `CCOS(=O)(=O)c1c(C(C)C)cc(C(C)C)cc1C(C)C` as well.
119

What do you have for `COc1ccc2c(c1)C(=O)/C(=C/c1cccc(OCC(=O)c3ccc([N+](=O)[O-])cc3)c1)CO2` ?
-50.5

// query: `COc1cc(/C=C/c2cc(/C=C/c3ccc(O)c(OC)c3)[nH]c(=O)n2)ccc1O`
62.5

What about this compound? CCc1cc(Cl)c(OC)c(C(=O)NCC2CCCN2CC)c1O (stereo unspecified)
95.8

Next entry: `COc1cccc(N=Nc2cccc(OC)c2)c1`
87

Also `COc1cc2cc(Oc3ccc(NC(=O)c4cccc(C(F)(F)F)c4)cc3)c(C)nc2cc1OC` ?
17.5

Cool, now `C/C=C/CSC(C)(C)C(=O)NC`
99.8

What would you report for `C[C@]12CC[C@@H]3c4ccc(O)cc4CC[C@H]3[C@@H]1CC[C@@H]2NS(=O)(=O)c1ccc(C(F)(F)F)cc1` ?
34.8

Subsequent entry: `C=C(C)[C@@H]1CC[C@]2(COCCC#N)CC[C@]3(C)[C@H](CC[C@@H]4[C@@]5(C)Cc6c([nH]c7ccccc67)C(C)(C)[C@@H]5CC[C@]43C)[C@@H]12`
86.1

Next: `O=C(CCl)Nc1ccc(Cc2ccc(NC(=O)CCl)cc2)cc1`
-32.9

Lookup COc1ccc(/C=c2\sc3n(c2=O)C(c2cc(OC)c(OC)c(OC)c2)C=C(c2ccc(OC)c(OC)c2)N=3)cc1OC (stereo unspecified)
63.7

Please answer likewise for `Nc1ccn(Cc2nnc(CCC(=O)c3nc4ccccc4[nH]3)o2)c(=O)n1`
73.1

Now consider O=C1CC(SC(=S)C2CCCC2=O)C(=O)N1 (stereo unspecified) .
100

Can you handle `COc1cc(C(=O)/C=C/c2c[nH]c3ccccc23)cc(OC)c1OC` next?
10.3

Try this compound next: `COc1ccc(C2=Cn3c(CCC(=O)c4nc5ccccc5[nH]4)nnc3SC2)cc1`
61.7

Follow-up item: `Cc1ccc(S(=O)(=O)N/N=C2\CCCc3ccccc32)cc1`
94.3

`O=C(CCn1cnc2c(cc(-c3ccccc3)n2-c2ccccc2)c1=O)Nc1ccc(F)cc1` , same question.
79.3

Please answer likewise for `O=C(O)COc1c(Cl)cc([N+](=O)[O-])cc1Cl`
101
